test: rodent pharmacokinetics in male C57BL/6 mice (IV, PO, IP); type: in vivo, mouse; details: mouse, in vivo; male C57BL/6 mice, PO, 29.6 mg/kg
readout type: AUC(0-inf) (ng·h/mL)
# value in ng·h/mL; strip the unit string

Item: COc1ccc(-c2cc(NCCCN3CCCCC3)c3ccccc3n2)cc1 [Compound D1] | AUC(0-inf): 6380

====

target: LMPTP-A (Low Molecular Weight Protein Tyrosine Phosphatase-A) enzyme (Homo sapiens (Human), UniProt P24666); assay: LMPTP primary screening / LMPTP (OMFP) enzyme inhibition assay, fluorescence intensity; assay type: biochemical; settings: initial screening hits (Scheme 4); read-out: IC50
Collected IC50 values appear next to each entry.

c1ccc(-c2cc(NCCN3CCCCC3)c3ccccc3n2)cc1 [Entry 41]	3.49 µM

Let's switch to this compound now.
Item: Cc1cccc(-c2nc(NCCCN3CCOCC3)c3ccccc3n2)c1 [Entry 1] | IC50: 7.12 µM

====

biological target: LMPTP (Homo sapiens (Human), UniProt P24666)
Sequence (P24666 whole entry): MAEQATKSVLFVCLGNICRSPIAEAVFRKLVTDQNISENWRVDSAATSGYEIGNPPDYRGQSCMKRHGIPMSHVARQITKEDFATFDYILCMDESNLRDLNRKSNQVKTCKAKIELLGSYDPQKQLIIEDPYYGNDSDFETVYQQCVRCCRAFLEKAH
readout type: IC50 (µM)
# value in µM; strip the unit string

Field IC50 (system: LMPTP (Homo sapiens (Human), UniProt P24666)) for entry COc1ccc(-c2cc(NCCCN3CCCCC3)c3ccccc3n2)cc1 [Compound D1] = 3.52

====

target: LMPTP-A (Low Molecular Weight Protein Tyrosine Phosphatase-A) enzyme (Homo sapiens (Human), UniProt P24666); assay: LMPTP primary screening / LMPTP (OMFP) enzyme inhibition assay, fluorescence intensity; format: biochemical; conditions: Table 1 quinazolinone series; P sample (purchased from commercial sources); read-out: LMPTP (OMFP) (IC50)
readout type: pIC50
A value of pIC50 is the negative decimal logarithm of a concentration given in moles per litre.

Item: Cc1cccc(-c2nc(NCCCN3CCOCC3)c3ccccc3n2)c1 | pIC50: 4.87

====

biological target: LMPTP-A (Low Molecular Weight Protein Tyrosine Phosphatase-A) enzyme (Homo sapiens (Human)); assay: LMPTP primary screening / LMPTP (OMFP) enzyme inhibition assay, fluorescence intensity; assay type: biochemical; conditions: LMPTP-A, OMFP substrate, method of Example 2; read-out: IC50
Collected IC50 values appear next to each entry.

CN(C)CCNc1cc(-c2ccccc2)nc2ccccc12	> 5000 nM

Item: CCN1CCC(Cc2cccc(Nc3cc(-c4ccc(OC)cc4)nc4ccccc34)c2)CC1 | IC50: 200 to 800 nM

Item: COc1ccc(-c2cc(Nc3ccccc3CC3CCNCC3)c3ccccc3n2)cc1 | IC50: > 5000 nM

Item: Clc1cccc(-c2cc(Nc3ccc(CN4CCCCC4)cc3)c3ccccc3n2)c1 | IC50: 801 to 5000 nM

Item: COc1ccc(-c2cc(Nc3ccc(CC4CCN(S(C)(=O)=O)CC4)cc3)c3ccccc3n2)cc1 | IC50: 801 to 5000 nM

Item: COc1ccc(-c2cc(Nc3ccccc3C(F)(F)F)c3ccccc3n2)cc1 | IC50: > 5000 nM

Item: O=C(NCCCN1CCOCC1)c1ccc(-c2cc(NCCCN3CCCCC3)c3ccccc3n2)cc1 | IC50: 200 to 800 nM

Item: FC(F)(F)Oc1cccc(-c2cc(NCCCN3CCCCC3)c3ccccc3n2)c1 | IC50: 801 to 5000 nM

====

test: rodent pharmacokinetics in male C57BL/6 mice (IV, PO, IP); type: in vivo, mouse; settings: mouse, in vivo; male C57BL/6 mice, PO, 29.6 mg/kg
readout type: half-life (min)
# value in min; strip the unit string

Item: COc1ccc(-c2cc(NCCCN3CCCCC3)c3ccccc3n2)cc1 [Compound D1] | half-life: 1750

====

biological target: LMPTP-A (Low Molecular Weight Protein Tyrosine Phosphatase-A) enzyme (Homo sapiens (Human), UniProt P24666); experiment: LMPTP primary screening / LMPTP (OMFP) enzyme inhibition assay, fluorescence intensity; format: biochemical; conditions: IC50 (nM), LMPTP-A, OMFP substrate, method of Example 2
readout type: IC50

Item: COc1ccc(-c2cc(Nc3ccccn3)c3ccccc3n2)cc1 [Compound G63] | IC50: 801 to 5000 nM

====

target: LMPTP-A (Low Molecular Weight Protein Tyrosine Phosphatase-A) enzyme (Homo sapiens (Human)); experiment: LMPTP primary screening / LMPTP (OMFP) enzyme inhibition assay, fluorescence intensity; type: biochemical; settings: LMPTP-A, OMFP substrate, method of Example 2; read-out: IC50
pIC50: −log10 of the molar value.
Collected pIC50 values appear next to each entry.

Please review the entries below; each comes with its answer.
CN1CCC(Cc2cccc(Nc3cc(-c4cccc(Cl)c4)nc4ccccc34)c2)CC1 [Compound I18]	5.30 to 6.10
NC(=O)c1ccc(-c2cc(Nc3cccc(CC4CCNCC4)c3)c3ccccc3n2)cc1 [Compound I3]	5.30 to 6.10
CN(C)c1cccc(Nc2cc(-c3cccc(Cl)c3)nc3ccccc23)c1 [Compound I14]	5.30 to 6.10
CCN(CC)S(=O)(=O)c1ccc(C)c(-c2cc(NCCCN3CCCCC3)c3ccccc3n2)c1 [Compound I242]	< 5.30
NC(=O)c1ccc(-c2cc(Nc3cccc(CN4CCCC4)c3)c3ccccc3n2)cc1 [Compound I5]	< 5.30
COc1ccc(-c2cc(Nc3ccc(Br)cc3)c3ccccc3n2)cc1 [Compound G41]	5.30 to 6.10
FC(F)(F)c1ccccc1-c1cc(NCCCN2CCCCC2)c2ccccc2n1 [Compound G1]	5.30 to 6.10
COc1ccc(-c2cc(Nc3cccc(CN4CCOCC4)c3)c3ccccc3n2)cc1 [Compound G55]	6.10 to 6.70
CCN1CCN(Cc2ccc(CNc3cc(-c4ccc(C(N)=O)cc4)nc4ccccc34)cc2)CC1 [Compound I214]	< 5.30
COc1ccc(-c2cc(NCc3ccccc3C(F)(F)F)c3ccccc3n2)cc1 [Compound G80]	5.30 to 6.10

Item: COc1ncccc1-c1cc(NCCCN2CCCCC2)c2ccccc2n1 [Compound I154] | pIC50: 5.30 to 6.10

Item: Fc1cccc(F)c1-c1cc(NCCCN2CCCCC2)c2ccccc2n1 [Compound I130] | pIC50: 5.30 to 6.10

Item: NC(=O)c1ccc(-c2cc(NCCCN3CCCCC3)c3ccccc3n2)c(F)c1 [Compound I252] | pIC50: 6.10 to 6.70

Item: COc1ccc(-c2cc(Nc3cccc(CC4CCN(S(C)(=O)=O)CC4)c3)c3ccccc3n2)cc1 [Compound I28] | pIC50: 5.30 to 6.10

Item: Clc1cccc(Nc2cc(NCCCN3CCCCC3)c3ccccc3n2)c1 [Compound I76] | pIC50: < 5.30

Item: FC(F)(F)Oc1ccccc1-c1cc(NCCCN2CCCCC2)c2ccccc2n1 [Compound G2] | pIC50: 6.10 to 6.70

Item: CN(C)CCc1ccc(Nc2cc(-c3ccc(C(N)=O)cc3)nc3ccccc23)cc1 [Compound I217] | pIC50: < 5.30

====

test: aqueous solubility (buffer pH 5.0-7.4, PBS); format: physicochemical; conditions: Pion's buffer, aqueous buffer; pH 5.0
readout type: solubility

Item: COc1ccc(-c2cc(NCCCN3CCCCC3)c3ccccc3n2)cc1 [Compound D1] | solubility: > 112 µg/mL

====

target: LMPTP-A (Low Molecular Weight Protein Tyrosine Phosphatase-A) enzyme (Homo sapiens (Human), UniProt P24666); experiment: LMPTP primary screening / LMPTP (OMFP) enzyme inhibition assay, fluorescence intensity; format: biochemical; conditions: LMPTP-A, OMFP substrate, method of Example 2; read-out: IC50
readout type: IC50

Please review the entries below; each comes with its answer.
CCOc1ccc(C(F)(F)F)c(-c2cc(NCCCN3CCCCC3)c3ccccc3n2)c1	801 to 5000 nM
FC(F)(F)c1cc(-c2cc(Nc3ccccc3CC3CCNCC3)c3ccccc3n2)cc(C(F)(F)F)c1	> 5000 nM
O=C(c1ccc(-c2cc(NCCCN3CCCCC3)c3ccccc3n2)cc1)N1CCNCC1	200 to 800 nM
COc1ccc(-c2cc(Nc3cccc(CN4CCCC4)c3)c3ccccc3n2)cc1	200 to 800 nM
COc1ccc(-c2cc(NCc3ccc(Cl)cc3)c3ccccc3n2)cc1	801 to 5000 nM
CNC(=O)c1ccc(-c2cc(NCCCN3CCCCC3)c3ccccc3n2)cc1	801 to 5000 nM

Item: Cc1cc(NCCCN2CCCCC2)c2ccccc2n1 | IC50: > 5000 nM

Item: COc1ccc(-c2cc(NCc3ccccc3)c3ccccc3n2)cc1 | IC50: 801 to 5000 nM

Item: COc1ccc(-c2cc(Nc3ccccc3)c3ccccc3n2)cc1 | IC50: 801 to 5000 nM

Item: CN(C)c1cc(-c2ccc[nH]2)nc2ccccc12 | IC50: > 5000 nM

Item: Clc1ncccc1-c1cc(NCCCN2CCCCC2)c2ccccc2n1 | IC50: 801 to 5000 nM
